Target: KRAS (G12D) (Homo sapiens, UniProt P01116, G12D)
Construct: in-cell western with KRAS G12D antibody after 24 h
Sequence (P01116 1-188 isoform P01116-2 G12D): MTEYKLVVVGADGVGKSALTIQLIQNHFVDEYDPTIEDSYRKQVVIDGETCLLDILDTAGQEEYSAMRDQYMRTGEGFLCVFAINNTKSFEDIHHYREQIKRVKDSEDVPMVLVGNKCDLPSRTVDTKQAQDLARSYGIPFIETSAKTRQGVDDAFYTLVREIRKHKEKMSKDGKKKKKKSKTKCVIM
Test: KRAS (G12D) cellular degradation assay in AsPC-1 cells
Assay type: cell-based
Details: 24 hours, antibody fluorescence (Odyssey CLX), DC50 half-maximal degradation concentration
measure: DC50

compound: CO[C@@H](C)COc1nc(N2C[C@@H]3C[C@H]2CN3)c2cc(C3CC3)c(-c3c(C)c(F)cc4[nH]ncc34)c(OCc3ccc(-c4cn([C@H](C(=O)N5C[C@H](O)C[C@H]5C(=O)N[C@H](C#Cc5cc6scnc6s5)CO)C(C)C)nn4)cc3)c2n1 [Example 67]
result: 10 to 100 nM

Would you kindly look at the next entry?
Can you look up the measured DC50 of CCn1nccc1-c1ccc([C@H](CO)NC(=O)[C@@H]2C[C@@H](O)CN2C(=O)[C@H](C(C)C)n2cc(-c3ccc(COc4c(-c5c(C)c(F)cc6[nH]ncc56)c(C5CC5)cc5c(N6CCC=CCC6)nc(OC[C@H](C)OC)nc45)cc3)nn2)cc1 [Example 181] for me? 10 to 100 nM

* * *

The following compounds are listed with their measured IC50 values.
Tested on: AsPC-1 cells
Experiment: AsPC-1 cell proliferation assay (CellTiter Glo)
Format: cell-based
Settings: Homo sapiens, ASPC1, 144 h, 6 days

compound: CO[C@@H](C)COc1nc(N2C[C@H]3C[C@@H]2CN3)c2cc(C3CC3)c(-c3c(C)c(F)cc4[nH]ncc34)c(OCc3ccc(-c4cn([C@H](C(=O)N5C[C@H](O)C[C@H]5C(=O)NCc5ccc(-c6scnc6C)cc5)C(C)C)nn4)cc3)c2n1 (single isomer, unassigned) [Example 11A]
tgt: AsPC-1 cells
IC50: 10 to 100 nM
--
compound: CCn1nccc1-c1ccc([C@H](CO)NC(=O)[C@@H]2C[C@@H](O)CN2C(=O)[C@H](C(C)C)n2cc(-c3ccc(COc4c(-c5c(C)c(F)cc6[nH]ncc56)c(C5CC5)cc5c(N6C[C@@H]7C[C@H]6CN7)nc(O[C@H]6C[C@H](OC)C6)nc45)cc3)nn2)c2c1CC2
tgt: AsPC-1 cells
IC50: < 10 nM
--
compound: Cc1ncsc1-c1ccc([C@@H](NC(=O)[C@@H]2C[C@@H](O)CN2C(=O)[C@H](C(C)C)n2cc(-c3ccc(COc4c(-c5c(C)c(F)cc6[nH]ncc56)c(C5CC5)cc5c(N6C[C@@H]7C[C@H]6CN7)nc(OC6CCOCC6)nc45)cc3)nn2)[C@@H](O)C2CC2)cc1
tgt: AsPC-1 cells
IC50: < 10 nM

Given CCn1nccc1-c1ccc([C@H](CO)NC(=O)[C@@H]2C[C@@H](O)CN2C(=O)[C@H](C(C)C)n2cc(-c3ccc(COc4c(-c5c(C)c(F)cc6[nH]ncc56)c(C5CC5)cc5c(N6CCNCC[C@H]6C)nc(OC[C@H](C)OC)nc45)cc3)nn2)cc1 , state its recorded IC50. < 10 nM

* * *

Reported IC50 is given for each of the following compounds.
Test system: AsPC-1 cells
Assay: AsPC-1 cell proliferation assay (CellTiter Glo)
Format: cell-based
Details: Homo sapiens, ASPC1, 144 h, 6 days

Consider the worked cases shown below.
compound: CCn1nccc1-c1ccc([C@H](CO)NC(=O)[C@@H]2C[C@@H](O)CN2C(=O)[C@H](C(C)C)n2cc(-c3ccc(COc4c(-c5c(C)c(F)cc6[nH]ncc56)c(C5CC5)cc5c(N(C)[C@@H]6CCNC6)nc(O[C@H]6C[C@H](OC)C6)nc45)cc3)nn2)cc1
tgt: AsPC-1 cells
result: < 10 nM
//
compound: CCn1nccc1-c1ccc([C@H](CO)NC(=O)[C@@H]2C[C@@H](O)CN2C(=O)[C@H](C(C)C)n2cc(-c3ccc(COc4c(-c5c(C)c(F)cc6[nH]ncc56)c(C5CC5)cc5c(N6C[C@@H]7C[C@H]6CN7)nc(OC[C@H](C)OC)nc45)cc3OC)nn2)cc1
tgt: AsPC-1 cells
result: 10 to 100 nM
//
compound: CO[C@@H](C)COc1nc(N2CCCNCC2)c2cc(C3CC3)c(-c3c(C)c(F)cc4[nH]ncc34)c(OCc3ccc(-c4cn([C@H](C(=O)N5C[C@H](O)C[C@H]5C(=O)N[C@H](c5ccc(-c6scnc6C)cc5)[C@H](C)O)C(C)C)nn4)cc3)c2n1
tgt: AsPC-1 cells
result: < 10 nM
//
compound: CCn1nccc1-c1ccc([C@H](CO)NC(=O)[C@@H]2C[C@@H](O)CN2C(=O)[C@H](C(C)C)n2cc(-c3ccc(COc4c(-c5c(C)c(F)cc6[nH]ncc56)c(C5CC5)cc5c(N6CCCCCC6)nc(OC[C@H](C)OC)nc45)cc3)nn2)cc1
tgt: AsPC-1 cells
result: 10 to 100 nM
//
compound: CCn1nccc1-c1ccc([C@H](CO)NC(=O)[C@@H]2C[C@@H](O)CN2C(=O)[C@H](C(C)C)n2cc(-c3ccc(COc4c(-c5c(C)c(F)cc6[nH]ncc56)c(C5CC5)cc5c(N6CC7CCC(C6)N7)nc(OC6CCOCC6)nc45)cc3)nn2)cc1
tgt: AsPC-1 cells
result: < 10 nM

State the recorded IC50 for this entry: CCn1nccc1-c1ccc([C@H](CO)NC(=O)[C@@H]2C[C@@H](O)CN2C(=O)[C@H](C(C)C)n2cc(-c3ccc(COc4c(-c5c(C)c(F)cc6[nH]ncc56)c(C5CC5)cc5c(N(C)C[C@H]6CCNC6)nc(OC[C@H](C)OC)nc45)cc3)nn2)cc1 < 10 nM

Which IC50 is listed for CCn1nccc1-c1ccc([C@H](CO)NC(=O)[C@@H]2C[C@@H](O)CN2C(=O)[C@H](C(C)C)n2cc(-c3ccc(COc4c(-c5c(C)c(F)cc6[nH]ncc56)c(C5CC5)cc5c(N(C)[C@H]6[C@@H]7CN[C@H]6C7)nc(OC[C@H](C)OC)nc45)cc3)nn2)cc1 ? < 10 nM

What value of IC50 has been recorded for this entry: Cc1ncsc1-c1ccc([C@H](CO)NC(=O)[C@@H]2C[C@@H](O)CN2C(=O)[C@H](C(C)C)n2cc(-c3ccc(COc4c(-c5c(C)c(F)cc6[nH]ncc56)c(C5CC5)cc5c(N6C[C@@H]7C[C@H]6CN7)nc(OC6CC7COCC7C6)nc45)cc3)nn2)cc1 (some centres unmarked) < 10 nM

* * *

Tested on: AsPC-1 cells
Assay: AsPC-1 cell proliferation assay (CellTiter Glo)
Type: cell-based
Settings: Homo sapiens, ASPC1, 144 h, 6 days
Experimental: ASPC-1 and PK-59 cellular assays ASPC-1 (ATCC cat. CRL-1682) and PK-59 (Nanjing Cobioer, Cat. No. CBP61184) were used in KRAS cellular degradation, pERK inhibition and proliferation assays. The two cell lines were maintained following vendor's instructions. […] Cells were incubated at 37° C. with 5% CO2 and cell density was monitored until ^~90% confluency was reached. […] Fluorescence signals were read on Odyssey CLX instrument. […]
Parameter IC50: see the listing below.

Field: example entries. Status: answers known.
molecule: CC[C@H](O)[C@H](NC(=O)[C@@H]1C[C@@H](O)CN1C(=O)[C@H](C(C)C)n1cc(-c2ccc(COc3c(-c4c(C)c(F)cc5[nH]ncc45)c(C4CC4)cc4c(N5C[C@@H]6C[C@H]5CN6)nc(OC5CCOCC5)nc34)cc2)nn1)c1ccc(-c2scnc2C)cc1
IC50: < 10 nM
//
molecule: CCn1nccc1-c1ccc([C@H](CO)NC(=O)[C@@H]2C[C@@H](O)CN2C(=O)[C@H](C(C)C)n2cc(-c3ccc(COc4c(-c5c(C)c(F)cc6[nH]ncc56)c(C5CC5)cc5c(N6C[C@@H]7C[C@H]6CN7)nc(O[C@H]6C[C@H](OC)C6)nc45)cc3)nn2)cc1
IC50: < 10 nM
//
molecule: CCn1nccc1-c1ccc([C@H](CO)NC(=O)[C@@H]2C[C@@H](O)CN2C(=O)[C@H](C(C)C)n2cc(-c3ccc(COc4c(-c5c(C)c(F)cc6[nH]ncc56)c(C5CC5)cc5c(N6C7CNCC6COC7)nc(OC[C@H](C)OC)nc45)cc3)nn2)cc1
IC50: 10 to 100 nM
//
molecule: CCn1nccc1-c1ccc([C@@H](NC(=O)[C@@H]2C[C@@H](O)CN2C(=O)[C@H](C(C)C)n2cc(-c3ccc(COc4c(-c5c(C)c(F)cc6[nH]ncc56)c(C5CC5)cc5c(N6CCNCC[C@H]6C)nc(OC[C@H](C)OC)nc45)cc3)nn2)[C@H](C)O)cc1
IC50: < 10 nM
//
molecule: CCn1nccc1-c1ccc([C@@H](NC(=O)[C@@H]2C[C@@H](O)CN2C(=O)[C@H](C(C)C)n2cc(-c3ccc(COc4c(-c5c(C)c(F)cc6[nH]ncc56)c(C5CC5)cc5c(N6C[C@@H]7C[C@H]6CN7)nc(OC6CC7(CCOC7)C6)nc45)cc3)nn2)[C@H](C)O)cc1 (stereo partly shown)
IC50: < 10 nM
//
molecule: CO[C@@H](C)COc1nc(N2C[C@@H]3C[C@H]2CN3)c2cc(C3CC3)c(-c3c(C)c(F)cc4[nH]ncc34)c(OCc3ccc(-c4cn([C@H](C(=O)N5C[C@H](O)C[C@H]5C(=O)N[C@H](C#Cc5cc6scnc6s5)CO)C(C)C)nn4)cc3)c2n1
IC50: 10 to 100 nM

Please find the next molecule below.
Look at this molecule and give its reported IC50. CCn1nccc1-c1ccc([C@@H](NC(=O)[C@@H]2C[C@@H](O)CN2C(=O)[C@H](C(C)C)n2cc(-c3ccc(COc4c(-c5c(C)c(F)cc6[nH]ncc56)c(C5CC5)cc5c(N6C[C@@H]7C[C@H]6CN7)nc(OC6CC7COCC7C6)nc45)cc3)nn2)[C@H](C)O)cc1 (stereo partly shown) < 10 nM
